Tested on: most abundant miRNAs in HEK293 cells
Experiment: miRNA inhibition by cocktail of 2'-O-methyl antisense oligoribonucleotides in HEK293 cells; seed match depletion/enrichment in down-/up-regulated transcripts (Affymetrix arrays)
Assay type: cell-based, human
Conditions: antisense cocktail vs mock
{NH2} = code of the source, not defined here
readout: efficiency of the individual antisense oligoribonucleotide (inhibition of cognate miRNA)

substance	recorded-measurement
miR-15a: 2'-O-methyl antisense oligoribonucleotide CGCCAAUAUUUACGUGCUGCUA (SEQ ID NO: 44) (all 2'-O-methyl, backbone not given here)	Worked
miR-18a: 2'-O-methyl antisense oligoribonucleotide CUAUCUGCACUAGAUGCACCUUA-NH2 (SEQ ID NO: 48) (all 2'-O-methyl, 3' {NH2}, backbone not given here)	Worked
